Values from patent US8158628B2

Documented inhibition at 10 µM across a set of compounds
Biological target: B1R of the rat (Rattus norvegicus)
Construct: expressed in transfected cells; host or cells: CHO K1 cells (Chinese hamster ovary), stably transfected
Sequence (P97583 whole entry): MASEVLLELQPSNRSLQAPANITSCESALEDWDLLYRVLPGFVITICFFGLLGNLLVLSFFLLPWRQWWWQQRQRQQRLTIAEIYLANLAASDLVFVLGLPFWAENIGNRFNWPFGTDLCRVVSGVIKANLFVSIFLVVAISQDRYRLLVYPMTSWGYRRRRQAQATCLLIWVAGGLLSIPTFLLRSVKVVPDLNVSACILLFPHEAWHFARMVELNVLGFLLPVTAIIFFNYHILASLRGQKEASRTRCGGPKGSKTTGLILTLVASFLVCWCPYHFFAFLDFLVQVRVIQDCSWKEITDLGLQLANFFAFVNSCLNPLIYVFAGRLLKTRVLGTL
Assay: FLIPR Ca2+ functional assay, B1R antagonism, rat B1R in CHO K1 cells
Assay type: cell-based
Conditions: test substance 10 μM; rB1R CHO K1 cells; agonist Des-Arg9 bradykinin at EC80; % of maximum achievable inhibition

- compound: "O=C(CC1c2cccn2CCN1S(=O)(=O)c1ccccc1)NCC1CCN(Cc2ccccc2)C1 (stereo not drawn)"
  test.target: "B1R of the rat (Rattus norvegicus)"
  inhibition at 10 µM [%]: 37.5
- compound: "O=C(CC1c2cccn2CCN1S(=O)(=O)c1cccc(Cl)c1)NC1CCc2cc(CN3CCCCC3)ccc2C1 (stereo not drawn)"
  test.target: "B1R of the rat (Rattus norvegicus)"
  inhibition at 10 µM [%]: 106
- compound: "Cc1ccc(S(=O)(=O)N2CCn3cccc3C2CC(=O)N[C@@H]2CCCc3cc(CN4CCC(F)CC4)ccc32)cc1 (stereo partly drawn)"
  test.target: "B1R of the rat (Rattus norvegicus)"
  inhibition at 10 µM [%]: 104
- compound: "COc1cc(C)c(S(=O)(=O)N2CCn3cccc3C2COCC(=O)N2CCC(Cc3ccncc3)CC2)c(C)c1 (stereo not drawn)"
  test.target: "B1R of the rat (Rattus norvegicus)"
  inhibition at 10 µM [%]: 101
- compound: "O=C(CC1c2cccn2CCN1S(=O)(=O)c1ccccc1)N1CCC(c2ccccc2)CC1 (stereo not drawn)"
  test.target: "B1R of the rat (Rattus norvegicus)"
  inhibition at 10 µM [%]: 28
- compound: "Cc1ccc(S(=O)(=O)N2CCn3cccc3C2CC(=O)NC2CCc3cc(CNC(C)(C)C)ccc3C2)cc1Cl (stereo not drawn)"
  test.target: "B1R of the rat (Rattus norvegicus)"
  inhibition at 10 µM [%]: 99.5
